Measured IC50 of individual entries
molecular target: MAGL (Mus musculus, UniProt O35678); construct: mouse brain membrane fraction or cell lysates for mouse assays; assay: In vitro competitive activity-based protein profiling, mouse MAGL
Sequence (O35678 whole entry): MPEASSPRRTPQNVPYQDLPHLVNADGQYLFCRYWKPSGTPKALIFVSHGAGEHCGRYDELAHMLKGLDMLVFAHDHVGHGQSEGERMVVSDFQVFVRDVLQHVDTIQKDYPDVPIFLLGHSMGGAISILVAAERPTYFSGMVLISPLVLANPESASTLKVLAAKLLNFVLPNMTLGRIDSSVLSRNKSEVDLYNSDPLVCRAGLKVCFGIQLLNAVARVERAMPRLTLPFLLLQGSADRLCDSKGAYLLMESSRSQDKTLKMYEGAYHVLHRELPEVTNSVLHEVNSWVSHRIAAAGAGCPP

Answered cases to consult:
compound	assay target	IC50
CN(Cc1ccc(C(F)(F)F)cc1)[C@@H]1C[C@@H]2CN(C(=O)n3cc(C(N)=O)cn3)C[C@@H]2C1 [Example 55]	MAGL (Mus musculus, UniProt O35678)	≤ 0.1 µM
O=C(c1cnn(C(=O)N2CC3CN(Cc4ccc(N5CCOCC5)cc4C(F)(F)F)CC3C2)c1)N1CCN(C2CC2)CC1 (stereo not drawn) [Example 14]	MAGL (Mus musculus, UniProt O35678)	0.1 to 1 µM
NC(=O)c1cnn(C(=O)N2CC[C@]3(CCN(Cc4ccc(N5CCOCC5)cc4C(F)(F)F)C3)C2)c1 [Example 195]	MAGL (Mus musculus, UniProt O35678)	0.1 to 1 µM
NC(=O)c1cnn(C(=O)N2CC[C@@]3(CCN(Cc4cc(Cl)cc(C(F)(F)F)c4)C3)C2)c1 [Example 192]	MAGL (Mus musculus, UniProt O35678)	≤ 0.1 µM
CN(Cc1cccc(Oc2ccccc2)c1)[C@@H]1C[C@@H]2CN(C(=O)n3cc(Cl)cn3)C[C@@H]2C1 [Example 164]	MAGL (Mus musculus, UniProt O35678)	≤ 0.1 µM

INPUT: Could you tell me which IC50 is on file for O=C(N1CC2CN(Cc3cccc(F)c3)CC2C1)n1cc(C(F)(F)F)cn1 (stereo not drawn) [Example 150] ?
OUTPUT: ≤ 0.1 µM

INPUT: Please look up its IC50: O=C(N1C[C@H]2C[C@@H](NCc3cccc(Cl)c3)C[C@H]2C1)n1cc(Cl)cn1 [Example 66]
OUTPUT: 0.1 to 1 µM

INPUT: GET /values?readout=IC50&item= O=C(N1CC2CN(Cc3ccc(N4CCCC4)cc3)CC2C1)n1cc(Cl)cn1 (stereo not drawn) [Example 123]
OUTPUT: 0.1 to 1 µM

INPUT: I have this compound here, O=C(N1C[C@H]2C[C@H](NCc3cccc(Cl)c3)C[C@H]2C1)n1cc(Cl)cn1 [Example 75] , and I need its recorded IC50.
OUTPUT: ≤ 0.1 µM

INPUT: Which value of IC50 has been reported for O=C(N1CC2CN(Cc3ccccc3F)CC2C1)n1cc(C(F)(F)F)cn1 (stereo not drawn) [Example 152] in the records?
OUTPUT: ≤ 0.1 µM

INPUT: Bench note: what IC50 did COc1ccc(CN2CC3CN(C(=O)n4cc(C(F)(F)F)cn4)CC3C2)cc1 (stereo not drawn) [Example 148] show?
OUTPUT: 0.1 to 1 µM

INPUT: For CN(Cc1ccc(Cl)cc1)[C@@H]1C[C@@H]2CN(C(=O)n3cc(Cl)cn3)C[C@@H]2C1 [Example 67] , what is its reported IC50?
OUTPUT: 0.1 to 1 µM

INPUT: GET /values?readout=IC50&item= NC(=O)c1cnn(C(=O)N2CC3CN(Cc4ccc(Cl)cc4)CC3C2)c1 (stereo not drawn) [Example 16]
OUTPUT: 0.1 to 1 µM

---

Target: MAGL (Mus musculus, UniProt O35678)
Construct: mouse brain membrane fraction or cell lysates for mouse assays; from tissue
Experiment: In vitro competitive activity-based protein profiling, mouse MAGL
Assay type: biochemical
Protocol: In Vitro Competitive Activity-Based Protein Profiling. Proteomes (mouse brain membrane fraction or cell lysates for mouse assays; human prefrontal cortex or cell membrane fractions for human assays) (50 μL, 1.0 mg/mL total protein concentration) were preincubated with varying concentrations of inhibitors at 37° C. […] Following gel imaging, serine hydrolase activity was determined by measuring fluorescent intensity of gel bands corresponding to MAGL and FAAH using ImageJ 1.43u software.
pIC50: −log10 of the molar value.
endpoint: pIC50

Guide cases for pIC50, answers given:
molecule	endpoint value
Cc1cccc(CN2CCC3(CCN(C(=O)n4cc(C(F)(F)F)cn4)C3)C2)c1 (centres unmarked)	6.00 to 7.00
CN(Cc1ccccc1Cl)[C@@H]1C[C@@H]2CN(C(=O)n3cc(C(N)=O)cn3)C[C@@H]2C1	6.00 to 7.00
O=C(c1cnn(C(=O)N2CC3CN(Cc4ccc(Oc5ccc(Cl)cc5)cc4)CC3C2)c1)N1CCCC1 (centres unmarked)	6.00 to 7.00
CN(Cc1cccc(N2CCOCC2)c1)[C@H]1C[C@@H]2CN(C(=O)n3cc(Cl)cn3)C[C@@H]2C1	6.00 to 7.00
CN(Cc1ccc(C(F)(F)F)cc1)[C@H]1C[C@@H]2CN(C(=O)n3cc(Cl)cn3)C[C@@H]2C1	≥ 7.00

INPUT: pIC50 lookup needed for O=C(N1CC2CN(Cc3cccc(Cl)c3)CC2C1)n1cc(C(F)(F)F)cn1 (centres unmarked) , thanks.
OUTPUT: 6.00 to 7.00

INPUT: May I ask what pIC50 has been recorded for `CN(Cc1cccc(C(F)(F)F)c1)[C@@H]1C[C@@H]2CN(C(=O)n3cc(Cl)cn3)C[C@@H]2C1` ?
OUTPUT: ≥ 7.00

INPUT: For `CN(Cc1cccc(N2CCOCC2)c1)[C@@H]1C[C@@H]2CN(C(=O)n3cc(Cl)cn3)C[C@@H]2C1` , what is its reported pIC50?
OUTPUT: 5.00 to 6.00

INPUT: Name the reported pIC50 value associated with the molecule O=C(N1CCC2(CCN(Cc3ccc(N4CCOCC4)cc3Cl)C2)C1)n1cc(Cl)cn1 (centres unmarked)
OUTPUT: ≥ 7.00

INPUT: Tell me the measured pIC50 of NC(=O)c1cnn(C(=O)N2CC3CN(Cc4cc(Cl)ccc4Cl)CC3C2)c1 (centres unmarked) , please.
OUTPUT: ≥ 7.00

INPUT: Which pIC50 is reported for this molecule? O=C(N1CC2CN(Cc3cccc(N4CCCC4)c3)CC2C1)n1cc(C(F)(F)F)cn1 (centres unmarked)
OUTPUT: ≥ 7.00

---

Target: FAAH (Mus musculus, UniProt O08914)
Construct: mouse brain membrane fraction or cell lysates for mouse assays; from tissue
Sequence (O08914 1-579): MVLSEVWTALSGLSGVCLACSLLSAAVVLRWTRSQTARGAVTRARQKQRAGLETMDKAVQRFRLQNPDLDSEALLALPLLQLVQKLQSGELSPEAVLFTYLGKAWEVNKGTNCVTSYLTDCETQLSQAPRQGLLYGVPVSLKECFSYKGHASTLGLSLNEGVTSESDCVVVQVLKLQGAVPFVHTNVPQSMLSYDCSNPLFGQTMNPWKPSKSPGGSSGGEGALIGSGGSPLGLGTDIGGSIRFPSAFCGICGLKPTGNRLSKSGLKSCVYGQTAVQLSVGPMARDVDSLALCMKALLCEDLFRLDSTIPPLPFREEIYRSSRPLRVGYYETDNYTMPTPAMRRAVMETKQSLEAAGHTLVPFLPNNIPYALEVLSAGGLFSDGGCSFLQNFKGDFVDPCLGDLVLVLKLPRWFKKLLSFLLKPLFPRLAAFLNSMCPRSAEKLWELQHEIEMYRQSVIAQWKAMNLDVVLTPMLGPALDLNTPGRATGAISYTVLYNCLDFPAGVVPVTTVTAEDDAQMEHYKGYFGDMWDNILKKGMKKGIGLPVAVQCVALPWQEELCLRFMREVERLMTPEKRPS
Assay: In vitro competitive activity-based protein profiling, mouse FAAH
Type: biochemical
Conditions: 1 μM, read-out: FAAH % inh. 1 μM (mouse)
endpoint: inhibition at 1 µM

Check out these entries, answers already filled in.
compound	inhibition at 1 µM
NC(=O)c1cnn(C(=O)N2CCC3(CCN(Cc4ccc(N5CCCC5)c(C(F)(F)F)c4)C3)C2)c1 (stereo not shown)	≥ 75%
CN(Cc1ccccc1Cl)[C@@H]1C[C@@H]2CN(C(=O)n3cc(C(=O)N4CCN(C5CC5)CC4)cn3)C[C@@H]2C1	0 to 25%
CNC(=O)c1cnn(C(=O)N2CC3CN(Cc4ccc(C(F)(F)F)cc4)CC3C2)c1 (stereo not shown)	≥ 75%
CNC(=O)c1cnn(C(=O)N2CC3CN(Cc4cc(Cl)ccc4Cl)CC3C2)c1 (stereo not shown)	≥ 75%

INPUT: For COc1ccc(CN2CCC3(CCN(C(=O)n4cc(C(F)(F)F)cn4)C3)C2)cc1 (stereo not shown) , what is its reported inhibition at 1 µM?
OUTPUT: ≥ 75%

INPUT: Which measured inhibition at 1 µM value corresponds to O=C(N1CCC2(CCN(Cc3cccc(Cl)c3)C2)C1)n1cc(Cl)cn1 (stereo not shown) [Example 113] ?
OUTPUT: ≥ 75%

INPUT: # input compound: O=C(N1CC2CN(Cc3cccc(C(F)(F)F)c3)CC2C1)n1cc(C(F)(F)F)cn1 (stereo not shown) ; wanted: its inhibition at 1 µM
OUTPUT: ≥ 75%

INPUT: Tell me the measured inhibition at 1 µM of O=C(N1CCC2(CCN(Cc3ccccc3Cl)C2)C1)n1cc(C(F)(F)F)cn1 (stereo not shown) , please.
OUTPUT: ≥ 75%

INPUT: Which measured inhibition at 1 µM value corresponds to CC(C)c1ccc(CN2CC3CN(C(=O)n4cc(Cl)cn4)CC3C2)c(N2CCCC2)c1 (stereo not shown) ?
OUTPUT: 50 to 75%

INPUT: Entry under review: `CC(=O)N(Cc1ccc(Cl)cc1)[C@H]1C[C@@H]2CN(C(=O)n3cc(Cl)cn3)C[C@@H]2C1` . Reported inhibition at 1 µM?
OUTPUT: 50 to 75%

INPUT: State the recorded inhibition at 1 µM for this entry: Cc1ccc(CN2CC3CN(C(=O)n4cc(C(F)(F)F)cn4)CC3C2)cc1 (stereo not shown)
OUTPUT: ≥ 75%

INPUT: Fill in the blank: the reported inhibition at 1 µM of `CN(Cc1cccc(C(F)(F)F)c1)[C@H]1C[C@@H]2CN(C(=O)n3cc(Cl)cn3)C[C@@H]2C1` is ____.
OUTPUT: ≥ 75%

INPUT: I would be grateful if you could share the reported inhibition at 1 µM for NC(=O)c1cnn(C(=O)N2CCC3(CCN(Cc4cc(N5CCOCC5)ccc4C(F)(F)F)C3)C2)c1 (stereo not shown) .
OUTPUT: ≥ 75%

INPUT: Any idea what its inhibition at 1 µM is? The compound is `CN(Cc1ccccc1C(F)(F)F)[C@@H]1C[C@@H]2CN(C(=O)n3cc(C(=O)N4CCN(C5CC5)CC4)cn3)C[C@@H]2C1`
OUTPUT: 0 to 25%

INPUT: Which measured inhibition at 1 µM value corresponds to `CC(=O)N(Cc1ccccc1Cl)[C@@H]1C[C@@H]2CN(C(=O)n3cc(Cl)cn3)C[C@@H]2C1` ?
OUTPUT: ≥ 75%

INPUT: Name the recorded inhibition at 1 µM for O=C(N1CCC2(CCN(Cc3ccc(N4CCOCC4)cc3)C2)C1)n1cc(Cl)cn1 (stereo not shown) .
OUTPUT: ≥ 75%

Attribution: patent US10385057B2
